# TEST_TARGET: T1, GDF15-HIS (ACROBiosystems, CAT #: GD5-H5149) (human, UniProt Q99988 197-308)
# T1 construct: Bought protein; also called GDF15 (ACROBiosystems, GD5-H5149); human GDF15; not shown: His tag
# T1 sequence (looked up): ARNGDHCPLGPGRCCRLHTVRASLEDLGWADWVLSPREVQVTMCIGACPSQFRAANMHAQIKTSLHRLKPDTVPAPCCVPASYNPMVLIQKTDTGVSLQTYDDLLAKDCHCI
# METHOD_SUMMARY: BLI (ForteBio Octet), antibody immobilised, GDF15 200-6.25 nM
Catalogue of kon values
Field format: number, assumed M⁻¹ s⁻¹, no unit text.

>>> numeric_readout("A1 (murine anti-53E5) (antibody, V domains shown, Purified murine hybridoma antibody) VH: QVQLKESGPGILQPSQTLSLTCSFSGFSLSTSGMGVGWIRQPSGKGLEWLAHILWDDVKRYNPALKSRLTISKDSSNSQIFLKIASVDTADTATYYCVQMAWDWFAYWGQGTLVTVSA VL: DIVMTQAQKFMSTSVEDRVSVTCKASQNVDTNVAWYQQKPGQSPKALIYSASYRSSGVPDRFTGSGSGTDFTLTISNVQSEDLAEYFCQQYHSYPTFGGGTKLEIK")
"2.29e+06"
>>> numeric_readout("A4 (murine anti-2A2) (antibody, V domains shown, Purified murine hybridoma antibody) VH: QVTLKESGPGILQPSQTLSLTCSFSGFSLTTSGMGVDWIRQSSGKGLEWLAHIYWDDDKRYNPSLKSRLTISKDTSSNQVFLKITSVDTADTATYYCARRAWDAMDYWGQGTSFTVSS VL: DIVMTQAQKFMSTSVGDRVSVTCKARQNVGTNVAWYQQKPGQSPKALIYSASYRYSGVPDRFTGSGSGTDFTLTISNVQSEDLAEYFCQQYNSYPYTFGGGTKLEIK")
"1.47e+06"

Continue with the binder presented below.
Param item = A6 (murine anti-53D10) (antibody, V domains shown, Purified murine hybridoma antibody) VH: QVTLKESGPGIVQPSQPFRLTCTFSGFSLSTSGIGITWIRQPSGKGLEWLATIWWDDDNRYNPSLKSRLTVSKDTSNNQAFLNIITVETADTAIYYCVQSAWDWFAYWGQGTLVTVSA VL: DIVMTQSQKFMSTSVGDRVSVTCKASQNVGTNVAWYQQKSGQSPKALIYSASYRNSGVPDRFTGSGSGTDFTLTISNVESEDLAEYFCQQYNSHPVTFGGGTKLEIK ; retrieve measured kon.
2.24e+06
